# Test system: Staphylococcus epidermidis
# protocol text: Antibacterial activity against Staphylococcus epidermidis PCM 2118 assessed as growth inhibition measured after 18 hrs by CLSI based method
# Format: functional
# run parameters: PCM 2118, 18 h
Where a SMILES comes first, the peptide text is derived from it. [ ]: non-standard residue; d: D form. The star is where a group is joined. ξ: configuration not given here. Myristoyl = CCCCCCCCCCCCCC(=O)*; Lauroyl = CCCCCCCCCCCC(=O)*; Decanoyl = CCCCCCCCCC(=O)*; ξDab = NCCC(N)C(=O)O
property label: MIC (µg/mL)

1. CCCCCCCCCCCC(=O)NCCCC[C@H](NC(=O)CCCCCCCCCCC)C(=O)N[C@@H](CCCCN)C(=O)N[C@@H](CCCCN)C(=O)N[C@@H](CCCCN)C(N)=O (Lauroyl-K(Lauroyl)KKK-NH2)
2. CCCCCCCCCCCCCC(=O)NCCCC[C@H](NC(=O)CCCCCCCCCCCCC)C(=O)N[C@@H](CCCCN)C(=O)N[C@@H](CCCCN)C(=O)N[C@@H](CCCCN)C(N)=O (Myristoyl-K(Myristoyl)KKK-NH2)
3. CCCCCCCCCC(=O)NCCCC[C@H](NC(=O)CCCCCCCCC)C(=O)N[C@@H](CCCCN)C(=O)N[C@@H](CCCCN)C(=O)N[C@@H](CCCCN)C(N)=O (Decanoyl-K(Decanoyl)KKK-NH2)
4. CCCCCCCCCCCC(=O)NCCC(NC(=O)CCCCCCCCCCC)C(=O)N[C@@H](CCCCN)C(=O)N[C@@H](CCCCN)C(=O)N[C@@H](CCCCN)C(N)=O (some centres undefined) (Lauroyl-[ξDab](Lauroyl)KKK-NH2)
Sort the listed entries by MIC, smallest first. # output: labels, in the requested order
3, 4, 1, 2

---

# System: Staphylococcus epidermidis
# protocol text: Antibacterial activity against Staphylococcus epidermidis PCM 2118 assessed as growth inhibition measured after 18 hrs by CLSI based method
# Format: functional
# run parameters: PCM 2118, 18 h
Where a SMILES comes first, the peptide text is derived from it. [ ]: non-standard residue; d: D form. The star is where a group is joined. ξ: configuration not given here. Myristoyl = CCCCCCCCCCCCCC(=O)*; Lauroyl = CCCCCCCCCCCC(=O)*; Decanoyl = CCCCCCCCCC(=O)*; ξDab = NCCC(N)C(=O)O; ξDap = NCC(N)C(=O)O
property label: MIC (µg/mL)

P. CCCCCCCCCCCC(=O)NCC(NC(=O)CCCCCCCCCCC)C(=O)N[C@@H](CCCCN)C(=O)N[C@@H](CCCCN)C(=O)N[C@@H](CCCCN)C(N)=O (stereo not given in full) (Lauroyl-[ξDap](Lauroyl)KKK-NH2)
Q. CCCCCCCCCC(=O)NCCC(NC(=O)CCCCCCCCC)C(=O)N[C@@H](CCCCN)C(=O)N[C@@H](CCCCN)C(=O)N[C@@H](CCCCN)C(N)=O (stereo not given in full) (Decanoyl-[ξDab](Decanoyl)KKK-NH2)
R. CCCCCCCCCCCCCC(=O)NCC(NC(=O)CCCCCCCCCCCCC)C(=O)N[C@@H](CCCCN)C(=O)N[C@@H](CCCCN)C(=O)N[C@@H](CCCCN)C(N)=O (stereo not given in full) (Myristoyl-[ξDap](Myristoyl)KKK-NH2)
Give the order of the entries above, sorted from least to greatest MIC. Note for the reader: the ranking is given by listing the labels in the order requested.
Q, P, R

Source: ChEMBL document CHEMBL4406885
